Cited source: patent US20230382979A1

Provide the recorded Pseudo Neut, B1.351 IC50 (pM) for the entries that follow.
target.or.system: SARS-CoV-2 spike protein, B1.351 (beta variant), borne on lentiviral pseudovirus (SARS-CoV-2, B1.351)
test.summary: cell-based or functional assay
Phrase the answer as number then unit, nothing more needed.

query: Answer with reported Pseudo Neut, B1.351 IC50 (pM) of antibody 3091 (antibody, V domains shown) VH: QMQLVQSGPEVKKPGTSVKVSCKASGFTFSSSAVQWVRQARGQGLEWIGWIVVGSGNANYAQKLQERVSITRDMSTSTAYMELSSLRPEDTAVYYCAAPHCSRTICHDGFDMWGQGTMVTVSS VL: EIVLTQSPGTLSLSPGERATLSCRASQSVRSSYLAWYQQKPGQAPRLLMFVASSRATGIPDRFSGSGSGTDFTLTISRLEPEDFAVYYCQQYDTSPWTFGQGTKVEIK
result: 78 pM

query: Provide one value: measured Pseudo Neut, B1.351 IC50 (pM) of antibody 1859 (antibody, V domains shown) VH: EVQLVESGGGLVKPGGSLRLSCAASGFSFNTYTMNWVRQAPGKGLEWVSYISSSSSYKYYSDSVKGRFSVSRDNAKKSLYLQMNGLRAEDTAVYYCARDGYCPNGVCTYYGMDVWGQGTTVTVSL VL: EIVMTQSPATLSVSPGERATLSCRASQSVSSNLAWYQQKPGQAPRLLIYGASTRATGIPARFSGSGSGTEFTLTISGLQSEDFAVYFCQQYSKWPPAYTFGQGTKLEIK
result: 73 pM

query: Indicate the recorded Pseudo Neut, B1.351 IC50 (pM) value for this binder: antibody 1589 (antibody, V domains shown) VH: EVQLVESGGGLIQVGGSLRLSCAASGLTVTSNYMNWVRQGPGKGLEWVSLIYSGGTTYYADSVKGRFTISRDDSKNTLYLQMNSLRAEDTAVYYCARPIVGARSGMDVWGQGTAVTVSS VL: DIQMTQSPSSLSASVGDRVTITCQASQDINKYLNWYQQKPGKAPKLLIYDASNLETGVPSRFSGSGSGTDFTFTISSLQPEDLATYYCHQFDNLPGTFGGGTKVEIK
result: 137 pM
